Recorded measurements of z-score, one per entry
Target: Luciferin 4-monooxygenase (Photinus pyralis)
Experiment: firefly luciferase enzyme inhibitors, primary screen, biochemical, luminescence, purified enzyme, 2006 set (AID 1141);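 further: cell-free assay with purified firefly luciferase at 100 ng per well in PBS; test concentration not given here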
Settings: SteadyGlo luminescence, 30 min, higher = more signal, called active from +8 up or from −8 down
The source made the active and inactive calls.

Past entries and their recorded results:
>  <compound>
C[C@@H]1C=CCC(=O)OC[C@H](C)C(=O)OC[C@H]2O[C@H]1C=C[C@H]2O

>  <measurement name>
z-score

>  <observed>
-1.1 (inactive)

$$$$
>  <compound>
CC1CC/C=C\[C@H]2OC34C=CCN(Cn5nnc6ccccc65)C(=O)[C@H]3N(CCO)C(=O)[C@@H]4C2C(=O)O1 (some centres not stated)

>  <measurement name>
z-score

>  <observed>
-1.98 (inactive)

$$$$
>  <compound>
CCc1cccc(NC(=O)O[C@H]2[C@H](OC(=O)Nc3ccc4c(c3)OCO4)[C@@H](OC(=O)Nc3ccc4c(c3)OCO4)[C@@H](OC)O[C@@H]2CO)c1

>  <measurement name>
z-score

>  <observed>
-7.34 (inactive)

$$$$
>  <compound>
C=COC[C@H]1CN2[C@@H](CC[C@@H](C)[C@@H]2c2ccc(Br)cc2)C(=O)O1

>  <measurement name>
z-score

>  <observed>
-2.84 (inactive)

$$$$
>  <compound>
CN(C)C(=O)[C@@]1(Cc2ccccc2)N=C(c2ccc(OCCCO)cc2)O[C@H]1c1ccccc1CN=[N+]=[N-]

>  <measurement name>
z-score

>  <observed>
-0.088 (inactive)

$$$$

Respond only with z-score recorded for O=C1O[C@@H](c2ccccc2)[C@@H](c2ccccc2)N2[C@@H](c3ccc(OCCO)cc3)[C@]3(C(=O)Nc4ccccc43)[C@@H](C(=O)N3CCN(c4ncccn4)CC3)[C@H]12
-1.4 (inactive)

Could you please provide reported z-score for CC(C)(C)OC(=O)CC[C@]1(C(N)=O)COC(c2ccc(OCCCO)cc2)=N1 ? Thanks!
-0.0436 (inactive)

###

Assay: MM1S cell viability effects, profiling panel, calcein-AM fluorescence, 48 h, basal (AID 1165);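 further: viability of MM1S multiple myeloma cells under basal unstimulated conditions; test concentration not given here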
Conditions: higher = more signal
Consider the following compounds and their measured z-score readings.
Answer with a bare number; do not write a unit.

Consider the following illustrative entries.
>  <compound>
CO[C@H]1COC(=O)[C@H](C)NC(=O)[C@@H](C)COC(=O)CC=C[C@@H]1C

>  <observed>
-0.303

$$$$
>  <compound>
CC(C)[Si]1(C(C)C)O[C@@H](c2ccccc2)c2cc(C3CC3)nc(-c3ccccc3)c21

>  <observed>
-2.2

$$$$
>  <compound>
CCCC[C@@H](O)C1=C(C)C[C@H]2C(=O)N(Cc3ccccc3)C(=O)[C@H]2[C@H]1CO

>  <observed>
-0.0699

$$$$
>  <compound>
CCOC(=O)CCN1C(=O)[C@H]2[C@H]3[C@H](O)C=CC(=O)[C@@H]3CC[C@H]2C1=O

>  <observed>
-0.921

$$$$
>  <compound>
COCC(=C=CC[C@@H](O)c1ccccc1OCCO)CCO

>  <observed>
0.699

$$$$
>  <compound>
COC(=O)[C@H](C)NC(=O)CCC1CC(OC(=O)NCc2ccc3c(c2)OCO3)CC2(CCCC(COC(=O)NCCOc3ccccc3)O2)O1 (some centres not stated)

>  <observed>
0.0937

$$$$
>  <compound>
CCOC(=O)NN=C1C[C@@H](O)[C@@H](O)[C@@H]2[C@@H]3C(=O)N(C(C)(C)C)C(=O)[C@@H]3CC[C@@H]12

>  <observed>
0.0284

$$$$
>  <compound>
O=C1C[C@@H](O)[C@@H](O)[C@@H]2[C@@H]3C(=O)N(Cc4ccc5c(c4)OCO5)C(=O)[C@@H]3CC[C@@H]12

>  <observed>
0.339

$$$$
>  <compound>
N#Cc1ccc(NN2C(C(O)c3cc(C(F)(F)F)cc(C(F)(F)F)c3)C=CC3C(=O)N(c4ccccc4)C(=O)C32)cc1 (configuration not stated)

>  <observed>
-1.45

$$$$
>  <compound>
CC(C)CN1CCc2nc(-c3ccccc3)c3c(c2CC1)CO[C@@H](C)C3

>  <observed>
-2.48

$$$$

Recall and state the measured z-score for COC(=O)[C@H]1COC(c2ccc(OCCCO)cc2)=N1 .
0.0072

Hello, please tell me recorded z-score for this one: CC(CCC(=O)OC[C@H]1O[C@H](C#Cc2ccccc2)C=C[C@@H]1Oc1ccc(C)cc1)=NOC[C@@H](O)[C@H]1O[C@@H]2OC(C)(C)O[C@@H]2[C@H]1O
-0.567

Retrieve z-score measured for CCN1C(=O)[C@H]2[C@H]3[C@H](O)C=CC(=O)[C@@H]3CC[C@H]2C1=O and print it.
-0.434

Kindly indicate its recorded z-score. Item: CC(C)[C@@H](OCc1ccccc1)[C@H](C)C=NO[C@H](C)c1cn([C@H](CO)Cc2ccccc2)nn1
-0.192

Return z-score (reported value) for this compound: NCCCCCNC(=O)[C@@H]1C[C@@H]2C(=O)N3CCC[C@H]3C(=O)N2[C@@H]1c1cccc(OCCO)c1
0.0689

Give the reported z-score for this compound. COc1ccc(O[C@H]2C=C[C@@H](c3ccccc3)O[C@@H]2COC(=O)N2CCCCC2)cc1
-0.979

Quickly give me recorded z-score for CN1C(=O)C2C(C1=O)C1C=C(CCCO)C2C(c2ccc(CN3CCCC3)cc2)N1C (configuration not stated)
0.312
